- Tested on: IGROV1 ovarian
- method description: NCI-60 one-dose screen, 48 h
- condition notes: 10 µM unless noted
This is part of a sample that, as a whole, favours compounds with a hit. Of some 83,000 tested, about 20% had one in any assay. The source made the active and inactive calls. Rule for the calls: active = growth percent below 10; inactive = the rest.
Your answer must be one of the following: t = active, f = inactive

CCN1CCN(CC(=O)Nc2nc3ccc(NCc4ccc(Br)cc4)cc3s2)CC1    f
COc1ccc2nc3ccccc3c(NCc3ccccc3)c2c1    f
CCOC(=O)C1CCN(c2ccc(N3C[C@@H](CNCc4ccc(C(=N)N)cc4)OC3=O)cc2)CC1    f
COC(=O)C1=C(C(=O)Nc2cccnc2)C2OC1(C(Cc1ccccc1)Oc1ccccc1)C1OC21 (stereo not given)    f

Lab note: next molecule to report on.
Qu. Given `COC(=O)/C=C1/SC(=Nc2cccc(Cl)c2)N(CCc2c[nH]c3ccc(O)cc23)C1=O` , state the outcome it received in this test.
Ans. t
